Target: trypsin (Bos taurus, UniProt P00760)
Sequence (P00760 24-246): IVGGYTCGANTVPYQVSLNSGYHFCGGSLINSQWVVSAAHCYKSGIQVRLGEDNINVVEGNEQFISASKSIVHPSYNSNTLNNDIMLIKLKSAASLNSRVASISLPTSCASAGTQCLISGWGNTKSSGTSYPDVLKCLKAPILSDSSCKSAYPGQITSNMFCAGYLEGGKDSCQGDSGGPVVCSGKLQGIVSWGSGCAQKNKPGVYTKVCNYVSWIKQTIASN
pIC50: −log10 of the molar value.
observationType: pIC50

// worked examples, pIC50 included
substanceSmiles	assayedTarget	pIC50
O=C(O)/C(S)=C/c1c[nH]c2ccccc12	trypsin (Bos taurus, UniProt P00760)	< 3.70
O=C(O)/C(S)=C/c1ccc2ccccc2c1	trypsin (Bos taurus, UniProt P00760)	< 3.70
O=C(O)/C(S)=C/c1ccc(I)cc1	trypsin (Bos taurus, UniProt P00760)	< 3.30

Moving on to another compound below.
input: Please supply the value of reported pIC50 for the item O=C(O)/C(S)=C/c1ccccc1
output: < 3.70
